All figures here come from paper PMC4503722.

# key: entry, value: pIC50
Test system: HT-29
Assay: cells
Assay type: cell-based
Conditions: assay number 28; basal; read-out: Basal_Viability ATP HT-29 summarized IC50
Interpret pIC50 as the negative base-10 log of the concentration measured in mol/L.

See these solved cases before continuing.
S=c1nc[nH]c2nc[nH]c12 :: 6.20
Oc1c(I)cc(I)c2cccnc12 :: 6.15
CCCCCCCCCCCCCCCC[n+]1ccccc1 :: 5.64

Record O=C1C2CC=CCC2C(=O)N1SC(Cl)(Cl)Cl (stereo not drawn) , field pIC50: 6.30

###

Tested on: HCT116
Assay: cells
Type: cell-based
Details: Homo sapiens, HCT-116, basal; HCT116; read-out: Basal_Viability ATP HCT116
Measured Parameter: pIC50
In textbook form, pIC50 equals minus log to base ten of the concentration in mol/L.

// known answers, use as guide
CCCOc1ccc2nc(NC(=O)OC)[nH]c2c1 [Oxibendazole] :: 5.32
CCc1oc2ccccc2c1C(=O)c1cc(Br)c(O)c(Br)c1 [Benzbromarone] :: 5.98

Measured pIC50 of COc1cccc2c1C(=O)c1c(O)c3c(c(O)c1C2=O)C[C@@](O)(C(=O)CO)C[C@@H]3O[C@H]1C[C@H](N)[C@H](O[C@@H]2CCCCO2)[C@H](C)O1 [pirarubicin] : 6.04

The reported value for O=C1C2CC=CCC2C(=O)N1SC(Cl)(Cl)Cl (stereo not shown) [captan] in terms of pIC50 is 5.75

Data point: COC(=O)Nc1nc2ccc(C(=O)c3cccs3)cc2[nH]1 [Nocodazole] ; pIC50 = 5.97

Field pIC50 (entry COc1cc([C@@H]2c3cc4c(cc3[C@H](O)[C@H]3COC(=O)[C@H]23)OCO4)cc(OC)c1OC [Podofilox] ) reads 6.73

Record COc1ccc2c(c1)C(=O)N(CCc1ccc(S(=O)(=O)NC(=O)NC3CCCCC3)cc1)C(=O)C2(C)C [gliquidone, reference compound] . Reported pIC50: 4.99

Lab book: pIC50 of O=C1C(I)=CC(=C(c2cc(I)c(O)c(I)c2)c2ccccc2C(=O)O)C=C1I [Iodotetragnost] noted as 6.42

response.value for CCCCC(CC)CNC(=N)NC(=N)NCCCCCCNC(=N)NC(=N)NCC(CC)CCCC (stereo not shown) [alexidine] (field: pIC50) = 6.15

###

Quick reference: pIC50 of the listed items.
Test system: HCT116 cells treated with a GSK3β inhibitor
Test: cells
Assay type: cell-based
Settings: Homo sapiens, HCT-116; GSK3b inhibitor pretreated; read-out: GSK3b inh pretreated_Viability ATP HCT116
pIC50 is a log-scale quantity: -log10 of the concentration expressed in molar.

O=C(Nc1ccc(Oc2ccc(Cl)cc2)c(Cl)c1)c1cc(I)cc(I)c1O [Rafoxanide] :: 7.18
COc1ccc2cc1Oc1ccc(cc1)C[C@H]1c3c(cc4c(c3Oc3cc5c(cc3OC)CCN(C)[C@@H]5C2)OCO4)CCN1C :: 5.45

Recorded pIC50 (molecule `NC(=O)C1(N2CCCCC2)CCN(CCCN2c3ccccc3CCc3ccc(Cl)cc32)CC1` ): 5.44

###

Tested on: SNU-C1
Assay: cells
Type: cell-based
Settings: assay number 30; basal
Item-by-item account of Basal_Viability ATP SNU-C1 IC50/EC50

CC(=O)O[C@@]12CO[C@@H]1C[C@H](O)[C@@]1(C)C(=O)[C@H](O)C3=C(C)[C@@H](OC(=O)[C@H](O)[C@@H](NC(=O)OC(C)(C)C)c4ccccc4)C[C@@](O)([C@@H](OC(=O)c4ccccc4)[C@H]21)C3(C)C :: > 20 µM
CCCCN1CCCC1C(=O)Nc1c(C)cc(C)cc1C (stereo not drawn) :: > 20 µM
O=C(Nc1ccc(Br)cc1)c1cc(Br)c(Br)s1 :: 1.0991 µM
CCCCC[C@@H](O)CC[C@H]1[C@@H]2Cc3cccc(OCC(=O)O)c3C[C@@H]2C[C@@H]1O :: > 20 µM
COCc1c(C(C)C)nc(C(C)C)c(/C=C/[C@@H](O)C[C@@H](O)CC(=O)[O-])c1-c1ccc(F)cc1.[Na+] :: 1.8733 µM
COc1c(C)c2c(c(O)c1C/C=C(\C)CCC(=O)OCCN1CCOCC1)C(=O)OC2 :: > 20 µM

Measured Basal_Viability ATP SNU-C1 IC50/EC50 for this entry `CC(C)(C)CC(C)(C)c1cc(Cc2cc(C(C)(C)CC(C)(C)C)cc(-n3nc4ccccc4n3)c2O)c(O)c(-n2nc3ccccc3n2)c1` on SNU-C1: > 20 µM

Query `[N-]=[N+]=CC(=O)OC[C@H](N)C(=O)O` on SNU-C1; Basal_Viability ATP SNU-C1 IC50/EC50 returned: > 20 µM

Bench note, SNU-C1: CCC(COC(=O)c1cc(OC)c(OC)c(OC)c1)(c1ccccc1)N(C)C.O=C(O)/C=C\C(=O)O (stereo not drawn) , Basal_Viability ATP SNU-C1 IC50/EC50 reads 2.4514 µM

The measured Basal_Viability ATP SNU-C1 IC50/EC50 that `Cc1cccc(C)c1NC(=O)CC12CCCN1CCC2` showed for SNU-C1 is > 20 µM

Given the compound CCN(CC)CCOc1ccc(C(O)(Cc2ccc(Cl)cc2)c2ccc(C)cc2)cc1 (stereo not drawn) and test system SNU-C1, the measured Basal_Viability ATP SNU-C1 IC50/EC50 is 2.4577 µM

Let me check: `CCCCCCCCCCCCCCCCOP(=O)([O-])OCC[N+](C)(C)C` , system SNU-C1, measured Basal_Viability ATP SNU-C1 IC50/EC50 is 0.9649 µM

Short answer on SNU-C1 for CCc1cccc2c3c([nH]c12)C(CC)(CC(=O)O)OCC3 (stereo not drawn) , Basal_Viability ATP SNU-C1 IC50/EC50: > 20 µM

Hey, SNU-C1 data for `CO[C@H]1O[C@@H]2O[C@@]3(C)CC[C@H]4[C@H](C)CC[C@@H]([C@H]1C)[C@@]24OO3` : Basal_Viability ATP SNU-C1 IC50/EC50 came out at > 20 µM

Value (Basal_Viability ATP SNU-C1 IC50/EC50, SNU-C1) for record `CCCCCCCCOC(=O)c1ccccc1C(=O)OCCCCCCCC` = > 20 µM

###

Test system: DLD-1
Experiment: cells
Format: cell-based
Conditions: Homo sapiens, DLD-1, read-out: Basal_Viability ATP DLD-1
Known pIC50 of a selection of compounds
The quantity pIC50 is defined as the negative base-10 logarithm of the molar concentration.

// below: answered compounds
CCCSc1ccc2nc(NC(=O)OC)[nH]c2c1 :: 6.96
Cc1nc(N)nc(N)c1-c1ccc(Cl)c(Cl)c1 [metoprine, reference compound] :: 6.20

Could you now consider this next compound?
The compound CC(C)C[C@H](NC(=O)[C@H](Cc1ccccc1)NC(=O)c1cnccn1)B(O)O [bortezomib, reference compound] showed pIC50 equal to 8.20

###

Test system: STC-1 cell line
Format: cell-based, mouse
Conditions: assay number 13
Measured Parameter: mSTC-1 GLP1 Secretion IC50/EC50

# count of solved cases: 8
COc1ccc(OC(=O)N(CC(=O)O)Cc2ccc(OCCc3nc(-c4ccccc4)oc3C)cc2)cc1 :: 1.5351 µM
O=C(CBr)Nc1ccc(Cl)cc1C(=O)c1ccccc1F :: > 40 µM
CC(=O)OC(C)C[N+](C)(C)C.[Cl-] (centres unmarked) :: > 40 µM
CN[C@@H]1[C@H](O)[C@H](NC)[C@H]2O[C@@]3(O)C(=O)C[C@@H](C)O[C@H]3O[C@@H]2[C@H]1O.Cl.Cl :: > 40 µM
CC[C@H](C)C(=O)O[C@H]1C[C@@H](C)C=C2C=C[C@H](C)[C@H](CC[C@@H]3C[C@@H](O)CC(=O)O3)[C@H]21 :: > 40 µM
c1ccc2ccccc2c1 :: > 40 µM
Cc1cc2c(C(C)C)c(O)c(O)c(C=O)c2c(O)c1-c1c(C)cc2c(C(C)C)c(O)c(O)c(C=O)c2c1O :: > 40 µM
CC1=C(C(=O)OC(C)C)C(c2cccc([N+](=O)[O-])c2)C(C(=O)OC2CN(C(c3ccccc3)c3ccccc3)C2)=C(N)N1 (centres unmarked) :: 1.234 µM

get_value(item= Clc1ccc(C(Cn2ccnc2)OCc2c(Cl)cccc2Cl)c(Cl)c1 (centres unmarked) , readout=mSTC-1 GLP1 Secretion IC50/EC50) returns > 40 µM

Memo: Clc1ccc(CSC(Cn2ccnc2)c2ccc(Cl)cc2Cl)cc1.O=[N+]([O-])O (centres unmarked) , reported mSTC-1 GLP1 Secretion IC50/EC50: > 40 µM

Summary for this molecule, `CC(C)(C)CC(C)(C)c1ccc(O)c(Cc2ccc(Cl)cc2Cl)c1` : mSTC-1 GLP1 Secretion IC50/EC50 is 0.5436 µM

In plain terms, `CC(=O)NO` has a documented mSTC-1 GLP1 Secretion IC50/EC50 of > 40 µM

The value of mSTC-1 GLP1 Secretion IC50/EC50 measured for the molecule `C/C(=C(\CCOC(=O)C(C)C)SS/C(CCOC(=O)C(C)C)=C(/C)N(C=O)Cc1cnc(C)nc1N)N(C=O)Cc1cnc(C)nc1N` turned out to be > 40 µM

In plain terms, `C#C[C@]1(O)CC[C@H]2[C@@H]3CCc4cc(OC5CCCC5)ccc4[C@H]3CC[C@@]21C` has a documented mSTC-1 GLP1 Secretion IC50/EC50 of > 40 µM

// recorded mSTC-1 GLP1 Secretion IC50/EC50 for `Clc1ccc2c(c1)CCc1cccnc1C2=C1CCNCC1` : > 40 µM

The reported value for `O=C(Nc1cccc2c(=O)cc(-c3nn[nH]n3)oc12)c1ccc(OCCCCc2ccccc2)cc1` in terms of mSTC-1 GLP1 Secretion IC50/EC50 is > 40 µM

Entry `CCCCCCCCCCCCOCCOCCOCCOCCOCCOCCOCCOCCOCCO` , mSTC-1 GLP1 Secretion IC50/EC50 reported as 30.3683 µM
